# maps each entry to its pIC50
- target desc: Acetylcholinesterase (Homo sapiens, UniProt P22303)
- Sequence (P22303 whole entry): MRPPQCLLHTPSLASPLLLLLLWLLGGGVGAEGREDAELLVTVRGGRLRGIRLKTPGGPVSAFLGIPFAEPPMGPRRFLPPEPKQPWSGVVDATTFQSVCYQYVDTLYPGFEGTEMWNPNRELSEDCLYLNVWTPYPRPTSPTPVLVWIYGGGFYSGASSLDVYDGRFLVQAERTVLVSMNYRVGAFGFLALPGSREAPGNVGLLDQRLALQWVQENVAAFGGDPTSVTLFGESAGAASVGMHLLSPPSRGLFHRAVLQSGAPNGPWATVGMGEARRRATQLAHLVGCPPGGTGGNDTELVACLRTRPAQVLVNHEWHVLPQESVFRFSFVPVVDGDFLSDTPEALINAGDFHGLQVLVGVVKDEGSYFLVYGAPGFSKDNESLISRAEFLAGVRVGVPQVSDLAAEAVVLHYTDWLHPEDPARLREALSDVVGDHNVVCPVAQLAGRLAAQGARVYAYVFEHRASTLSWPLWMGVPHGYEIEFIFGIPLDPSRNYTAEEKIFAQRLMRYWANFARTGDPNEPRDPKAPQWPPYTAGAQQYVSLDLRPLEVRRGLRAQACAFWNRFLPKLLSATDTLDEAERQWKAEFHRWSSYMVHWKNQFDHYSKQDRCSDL
pIC50: −log10 of the molar value.

- smiles representation: "CC(C)=CC(=O)C[C@H](C)c1ccc(C)cc1"
  pIC50: 3.72
- smiles representation: "Cc1ccc([C@@H](C)CC(=O)CC(C)C)cc1"
  pIC50: 4.09

====

- target desc: UniProt:P22303
- method notes: Inhibition of human erythrocytes acetylcholinesterase after 15 mins at 250 uM relative to control
Think of 40% as a floor: if inhibition stands on it or above, it is satisfied; beneath it, not satisfied.

- compound: "Cc1coc(C[C@](C)(O)c2ccc(C(=O)O)cc2)c1"
  class name: "not satisfied"
- compound: "C/C(=C\\C(=O)C[C@](C)(O)c1ccc(C(=O)O)cc1)CO"
  class name: "not satisfied"
- compound: "CC(C)=CC(=O)C[C@](C)(O)c1ccc(C(=O)O)cc1"
  class name: "satisfied"
- compound: "C/C(=C\\C(=O)C[C@H](C)c1ccc(C(=O)O)cc1)CO"
  class name: "not satisfied"
- compound: "CC(C)(O)CC(=O)CC(C)(O)c1ccc(C(=O)O)cc1 (single isomer, unassigned; (+))"
  class name: "not satisfied"
